molecular target: Dual specificity tyrosine-phosphorylation-regulated kinase 1A (Homo sapiens, UniProt Q13627); further: in the data inactive means no Kd found up to 30 µM
Calls of active or inactive are those of the source.
experimental_readout: Kd

Examples from the recorded data:
CCNC(=O)C#Cc1ccc2c(c1)NC(=O)/C2=C(\Nc1ccc(CN(C)C)cc1)c1ccccc1 ... > 30 µM (inactive)
C[C@@H](N)c1ccc(C(=O)Nc2ccnc3[nH]ccc23)cc1 [Y-39983] ... > 30 µM (inactive)

Which Kd value is on record for Cn1ncc(Cl)c1-c1cc(C(=O)N[C@H](CN)Cc2ccc(F)c(F)c2)oc1Cl [UPROSERTIB] ? 0.238 µM

Which Kd value is on record for Cc1cc(Nc2ncc(Cl)c(Nc3ccccc3S(=O)(=O)C(C)C)n2)c(OC(C)C)cc1C1CCNCC1 [CERITINIB] ? > 30 µM (inactive)

* * *

molecular target: Tyrosine-protein kinase JAK1 (Homo sapiens, UniProt P23458); further: in the data inactive means no Kd found up to 30 µM
Sequence (P23458 whole entry): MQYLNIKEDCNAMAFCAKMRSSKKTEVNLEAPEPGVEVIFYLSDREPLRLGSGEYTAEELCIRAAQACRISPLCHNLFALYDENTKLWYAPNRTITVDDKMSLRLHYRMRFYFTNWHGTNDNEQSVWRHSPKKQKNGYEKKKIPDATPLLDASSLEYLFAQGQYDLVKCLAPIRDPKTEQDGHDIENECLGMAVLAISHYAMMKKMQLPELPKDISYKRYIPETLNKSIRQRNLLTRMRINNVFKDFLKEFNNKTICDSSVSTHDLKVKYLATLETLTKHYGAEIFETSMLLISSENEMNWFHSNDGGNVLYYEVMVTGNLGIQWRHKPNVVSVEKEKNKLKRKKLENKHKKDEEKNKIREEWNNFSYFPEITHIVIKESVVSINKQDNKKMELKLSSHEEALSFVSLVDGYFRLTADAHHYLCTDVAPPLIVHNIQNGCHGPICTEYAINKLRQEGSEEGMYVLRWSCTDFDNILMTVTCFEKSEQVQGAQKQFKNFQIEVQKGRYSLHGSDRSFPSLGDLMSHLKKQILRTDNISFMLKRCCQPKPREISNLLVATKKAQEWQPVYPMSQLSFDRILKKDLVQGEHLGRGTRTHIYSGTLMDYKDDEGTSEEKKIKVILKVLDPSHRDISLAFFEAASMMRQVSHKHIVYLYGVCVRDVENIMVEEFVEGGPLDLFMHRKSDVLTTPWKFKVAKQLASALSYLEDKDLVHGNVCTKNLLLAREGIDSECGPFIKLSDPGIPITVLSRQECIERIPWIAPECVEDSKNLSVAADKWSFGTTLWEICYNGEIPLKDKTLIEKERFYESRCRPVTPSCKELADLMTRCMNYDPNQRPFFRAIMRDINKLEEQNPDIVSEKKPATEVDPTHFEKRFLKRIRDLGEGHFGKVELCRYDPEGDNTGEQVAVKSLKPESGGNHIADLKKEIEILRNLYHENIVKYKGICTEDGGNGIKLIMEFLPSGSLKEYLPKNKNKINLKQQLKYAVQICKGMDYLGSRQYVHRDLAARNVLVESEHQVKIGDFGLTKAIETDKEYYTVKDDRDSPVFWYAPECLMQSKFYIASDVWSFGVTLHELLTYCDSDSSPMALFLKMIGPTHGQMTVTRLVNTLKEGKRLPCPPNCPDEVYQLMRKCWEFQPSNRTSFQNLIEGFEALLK
Active and inactive are the calls of the source.
Permitted responses: true for active, false for inactive

Worked examples, 5 molecules total:
Cc1cnc(NC(=O)Nc2cc(Br)c(C)cc2OC[C@@H]2CNCCO2)cn1 ... false
CNC(=O)c1cc(Oc2ccc(NC(=O)Nc3cc(C(C)(C)C)nn3-c3ccc4ncccc4c3)c(F)c2)ccn1 ... false
CO[C@H]1C[C@@H]2CC[C@@H](C)[C@@](O)(O2)C(=O)C(=O)N2CCCC[C@H]2C(=O)O[C@H]([C@H](C)C[C@@H]2CC[C@@H](OP(C)(C)=O)[C@H](OC)C2)CC(=O)[C@H](C)/C=C(\C)[C@@H](O)[C@@H](OC)C(=O)[C@H](C)C[C@H](C)/C=C/C=C/C=C/1C ... false
CN1C/C=C/CCOc2cccc(c2)-c2ccnc(n2)Nc2cccc(c2)C1 ... true
C[C@@H](NC(=O)c1ncnc(N)c1Cl)c1ncc(C(=O)Nc2cc(C(F)(F)F)c(Cl)cn2)s1 ... false

State the result this test recorded for O=C(Nc1cc(C(F)(F)F)cc(C(F)(F)F)c1)c1cc(Cl)ccc1O . false

* * *

Where a name gives a salt, the structure may show the parent alone. The source made the active and inactive calls.
The following molecules each carry a recorded Kd for Ephrin type-A receptor 7 (Homo sapiens, UniProt Q15375).

Examples from the recorded data:
Cc1csc(-c2nnc(Nc3ccc(Oc4ncccc4-c4ccnc(N)n4)cc3)c3ccccc23)c1 ... > 30 µM (inactive)
CNC(=O)c1cccc2cc(Oc3ccnc4cc(OCC5(N)CC5)c(OC)cc34)ccc12 ... > 30 µM (inactive)
O=C(Nc1c[nH]nc1-c1nc2cc(CN3CCOCC3)ccc2[nH]1)NC1CC1 ... 0.008 µM (active)
C=CC(=O)N1CCC[C@H](n2c(=O)n(-c3ccc(Oc4ccccc4)cc3)c3c(N)ncnc32)C1 ... > 30 µM (inactive)
CCS(=O)(=O)N1CCN(c2ccc(Nc3ncc(C(N)=O)c(NC4CC4)n3)cc2)CC1 [Cerdulatinib Hydrochloride] ... > 30 µM (inactive)
CN(C[C@@H]1COCCO1)S(=O)(=O)Nc1ccc2ccc3ncc(-c4cnn(C)c4)cc3c(=O)c2c1 ... > 30 µM (inactive)
C[C@@H](Oc1cc(C(=O)Nc2ccc(C(=O)N3CCN(C)CC3)cc2)nnc1N)c1c(Cl)ccc(F)c1Cl ... > 30 µM (inactive)
O=C(Cc1ccc(-c2ccc(OCCN3CCOCC3)cc2)cn1)NCc1ccccc1 ... > 30 µM (inactive)

Form field: Kd recorded for Cc1[nH]c(/C=C2\C(=O)Nc3ccccc32)c(C)c1CCC(=O)O [ORANTINIB] with Ephrin type-A receptor 7 (Homo sapiens, UniProt Q15375) (enter value) > 30 µM (inactive)

Form field: Kd recorded for Cn1cc(-c2cnc3ccc4ccc(CS(=O)(=O)NCc5ccccn5)cc4c(=O)c3c2)cn1 with Ephrin type-A receptor 7 (Homo sapiens, UniProt Q15375) (enter value) > 30 µM (inactive)

Form field: Kd recorded for CC(C)(C)c1nc(-c2cccc(NS(=O)(=O)c3c(F)cccc3F)c2F)c(-c2ccnc(N)n2)s1 with Ephrin type-A receptor 7 (Homo sapiens, UniProt Q15375) (enter value) > 30 µM (inactive)
